The following molecules are shown together with reported % Inhibition values.
Tested on: Plasmodium falciparum
method.summary: Confirmatory screen in NF54 nanoGlo assay, in single point, at 2uM, 72h
Format: functional, Erythrocyte
settings: timepoint 72 hour
Out of some 4,800 compounds screened, about 420 (8.8%) showed an effect of 50% or more. The list comes from a sample in which strong results are over-represented; it also holds close analogues and randomly drawn compounds.
All answers are understood in %, so give the number only.

Solved entries:
CCn1cnc2c(N3CCC[C@H](c4ccncc4)C3)ncnc21 = 68
Cc1cccc(NC(=O)NCCn2nnc3cc(S(=O)(=O)N4CCCC4)ccc32)c1C = -1
CC(C)(C)c1ccnc(N[C@H]2CO[C@H]3[C@@H]2OC[C@@H]3NC(=O)NCc2ccccc2)n1 = 18
O[C@H]1Cc2ccccc2[C@H]1Nc1nc(-c2ccccn2)nc2c1CCNC2 = 13
Cc1ncccc1C(=O)Nc1cccc(Oc2cccnn2)c1 = 1
CCCc1nc(N2CCCN(C(=O)C3CCCCC3)CC2)c2c(C)nn(-c3ccccc3)c2n1 = 0
Cc1cccc(CN2C(=O)[C@@H]3CCCN3c3ccc(C#N)cc32)c1 = 0
CN(C(=O)NC1CCCC1)c1nc2c(s1)CN(Cc1ccccc1)C2=O = -12

Looking up CCn1c(=O)c(N2CCC[C@H](C(=O)NCc3ccccc3OC)C2)nc2cccnc21 , I found its % Inhibition recorded as -7

Per the record, COc1ccccc1CN(C(=O)c1ccc(C)cc1)c1ccc(CC(=O)NCCN2CCCCC2)cc1 has % Inhibition of 39

What the record says about O=C(NC1CC1)c1cn(CC2(O)CCN(Cc3ccccc3)CC2)nn1 : % Inhibition is 0

Quick note, % Inhibition for COC(=O)c1[nH]c(C)cc1NC(=O)C1=CCCCCC1 landed at -2

Entry N[C@H]1C[C@@H](c2cc(N3CCN(C4CCCCC4)CC3)nc(N3CCCC3)n2)C1 ; % Inhibition = 44

# molecule CCC(C)(CC)[C@@](O)(C#CC[N+]1(Cc2ccccc2Cl)CCCCC1)c1ccccc1 ; its % Inhibition = 4

The molecule listed as COC(=O)c1ccccc1NC(=O)NCCn1nnc2cc(S(=O)(=O)N(C)C)ccc21 has a reported % Inhibition of 55
